Test system: Plasmodium falciparum
protocol details: GSK_TCMDC: Inhibition of Plasmodium falciparum 3D7 in whole red blood cells, using parasite LDH activity as an index of growth. Test compounds present at 2uM
Type: functional
Catalogue of compounds with associated Inhibition
Field format: number, assumed %, no unit text.

compound | Inhibition / %
N=c1c2nc(-c3c(F)cccc3Cl)[nH]c(=O)c2[nH]c(=O)n1-c1ccccc1 | 95
Clc1ccc2c(Cl)c(CNCCCNc3nc4ccccc4[nH]3)[nH]c2c1 | 100
O=C(Nc1cccc(-c2ccc(CN3CCCC3)cc2)c1)c1ccc(F)cc1.O=C(O)C(F)(F)F | 92

Q: Which Inhibition is reported for this compound? CC(C)CNCc1ccc(-c2ccccc2CNC2CCN(Cc3ccccc3)CC2)cc1.O=C(O)C(F)(F)F
Ans: 100

Q: Do the same for CNc1ccc(CNCc2cccc(-c3ccc(-c4nc5ccccc5[nH]4)cc3)c2)cc1.O=C(O)C(F)(F)F please
Ans: 100

Q: Follow-up item: O=C(Nc1ccc(Cn2nc(Cl)c(N3CCNCC3)cc2=O)cc1)Nc1ccc(-c2ccccc2)cc1.O=C(O)C(F)(F)F
Ans: 97

Q: What about COc1ccc2c(c1)c(C1CCN(CCCCNC(=O)c3ccc(-c4ccc(C(F)(F)F)cc4)cc3)CC1)cn2C(C)C ?
Ans: 99

Q: Next up: CC1CN(c2cnn(C/C=C/c3ccc(NC(=O)c4ccc(Cl)cc4)cc3)c(=O)c2Cl)CC(C)N1.O=C(O)C(F)(F)F (centres undefined)
Ans: 88

Q: Please give the result for CCCc1cc(NCC)nc(Nc2ccc(F)cc2)n1 too.
Ans: 86
